Property: G2/M cell population; scope: individual compounds
Tested on: UACC 903 cells
protocol.summary: Cell cycle analysis (propidium iodide, FACScan)
test.conditions: 10 μM, 24 hours
Answer field: number only, no words.

compound: S=C=NCCCCCCc1ccccc1 [PHITC, Phenylhexylisothiocyanate]
G2/M cell population: 27.5

stdin: What G2/M cell population value was documented for this compound, [Se]=C=NCCCCCCc1ccccc1 [ISC-6, Phenylhexyl Isoselenocyanate] ?
stdout: 24.5

stdin: What G2/M cell population value was documented for this compound, [Se]=C=NCCCCc1ccccc1 [ISC-4, Phenylbutyl Isoselenocyanate] ?
stdout: 29.4

stdin: What G2/M cell population value was documented for this compound, S=C=NCCCCc1ccccc1 [PBITC, phenylbutylisothiocyanate, reference compound] ?
stdout: 31.9
